Activity values, listed per item
Test system: Enterobacter cloacae
Test: Antimicrobial activity against Enterobacter cloacae with nonderepressed AmpC beta-lactamsae assessed as susceptible isolate by broth microdilution method
Assay type: functional
Numeric only. Scale: %

Field: example entries. Status: answers known.
- Molecule: "CC(C)(O/N=C(\\C(=O)N[C@@H]1C(=O)N2C(C(=O)[O-])=C(C[n+]3ccccc3)CS[C@H]12)c1csc(N)n1)C(=O)O"
  Activity [%]: 93.6
- Molecule: "C[C@@H](O)[C@H]1C(=O)N2C(C(=O)O)=C(S[C@@H]3CN[C@H](C(=O)N(C)C)C3)[C@H](C)[C@H]12"
  Activity [%]: 99.5
- Molecule: "C[C@@H](O)[C@H]1C(=O)N2C(C(=O)O)=C(S[C@@H]3CN[C@H](CNS(N)(=O)=O)C3)[C@H](C)[C@H]12"
  Activity [%]: 99.3
- Molecule: "CO/N=C(\\C(=O)N[C@@H]1C(=O)N2C(C(=O)O)=C(CSc3nc(=O)c(O)nn3C)CS[C@H]12)c1csc(N)n1"
  Activity [%]: 91.9

Moving on to the next molecule.
Ask | Query (molecule): C[C@@H](O)[C@H]1C(=O)N2C(C(=O)O)=C(SCCNC=N)C[C@H]12 [IMIPENEM ANHYDROUS] ; field requested: Activity
Reply | 99.5

====

Tested on: Acinetobacter
Test: Antimicrobial activity against imipenem susceptible Acinetobacter by broth microdilution method
Type: functional
Listed below: MIC90 values for each entry.
Provide the reading as a plain figure in µg/mL.

- Molecule: "CO/N=C(\\C(=O)N[C@@H]1C(=O)N2C(C(=O)[O-])=C(C[N+]3(C)CCCC3)CS[C@H]12)c1csc(N)n1"
  MIC90, µg/mL: 32

Ask | Can you share its MIC90? I mean this molecule: C[C@@H](O)[C@H]1C(=O)N2C(C(=O)O)=C(S[C@@H]3CN[C@H](C(=O)N(C)C)C3)[C@H](C)[C@H]12 [MEROPENEM]
Reply | 4

Ask | Okay, and C[C@@H](O)[C@H]1C(=O)N2C(C(=O)O)=C(S[C@@H]3CN[C@H](CNS(N)(=O)=O)C3)[C@H](C)[C@H]12 [DORIPENEM] ?
Reply | 2

Ask | And what about the molecule C[C@@H](O)[C@H]1C(=O)N2C(C(=O)O)=C(SCCNC=N)C[C@H]12 [IMIPENEM ANHYDROUS] ?
Reply | 4

====

System: Pseudomonas aeruginosa
Experiment: Antimicrobial activity against Pseudomonas aeruginosa isolated from non-ICU patient assessed as resistant isolate by broth microdilution method
In this section we review reported Activity values for a set of compounds.

A selection of reference data follows.
- Compound: "CC(C)(O/N=C(\\C(=O)N[C@@H]1C(=O)N2C(C(=O)[O-])=C(C[n+]3ccccc3)CS[C@H]12)c1csc(N)n1)C(=O)O [CEFTAZIDIME]"
  Assay Result: "10.4%"
- Compound: "CO/N=C(\\C(=O)N[C@@H]1C(=O)N2C(C(=O)[O-])=C(C[N+]3(C)CCCC3)CS[C@H]12)c1csc(N)n1"
  Assay Result: "5.1%"
- Compound: "C[C@@H](O)[C@H]1C(=O)N2C(C(=O)O)=C(SCCNC=N)C[C@H]12 [IMIPENEM ANHYDROUS]"
  Assay Result: "17.2%"

Consider now this further compound.
Ask | Form field: reported Activity of C[C@@H](O)[C@H]1C(=O)N2C(C(=O)O)=C(S[C@@H]3CN[C@H](C(=O)N(C)C)C3)[C@H](C)[C@H]12 [MEROPENEM]
Reply | 12.4%

Hey, just so you know, these numbers are from ChEMBL document CHEMBL1275550.
